assay: Thermodynamic solubility in fasted-state simulated intestinal fluid (FaSSIF); type: physicochemical; conditions: pH 6.5, LLOQ < 1.56 µM

>  <smi>
CC(C)[C@H](N)C(=O)Oc1ccc(Cl)cc1C(=O)Nc1ccc(C(F)(F)F)cc1

>  <solubility thermodynamic>
< 1.56 µM

$$$$

====

experiment: Single-dose IV and PO pharmacokinetics in mice; assay type: in vivo, male C57BL/6 mice; settings: male, C57BL/6, mouse, plasma, iv, 2 mg/kg, IV, 2 mg/kg (valine conjugates 2 mg/kg EQV); analyte = dosed compound; non-compartmental analysis; read-out: AUCall, Geo Mean
Parameter threshold = 5 µM·h. Response is y when AUC meets or exceeds it, else n.

>  <compound>
CC(C)[C@H](N)C(=O)Oc1ccc(Cl)cc1C(=O)Nc1ccc(C(F)(F)F)cc1Cl

>  <assigned_label>
y

$$$$
>  <compound>
CC(C)[C@H](N)C(=O)Oc1ccc(Cl)cc1C(=O)Nc1ccc([N+](=O)[O-])cc1Cl [valine–niclosamide]

>  <assigned_label>
y

$$$$
>  <compound>
O=C(Nc1ccc(C(F)(F)F)cc1Cl)c1cc(Cl)ccc1O

>  <assigned_label>
n

$$$$
>  <compound>
CC(C)[C@H](N)C(=O)Oc1ccc(Cl)cc1C(=O)Nc1ccc(C(F)(F)F)cc1

>  <assigned_label>
y

$$$$

====

test system: Primary Male Hepatocytes; assay: CCK-8 cytotoxicity assay, primary male hepatocytes; type: cell-based; conditions: 72 h treatment
pIC50: −log10 of the molar value.
parameter_measured: pIC50

>  <compound>
O=C(Nc1ccc([N+](=O)[O-])cc1Cl)c1cc(Cl)ccc1O [Niclosamide, niclosamide, reference compound]

>  <target_under_test>
Primary Male Hepatocytes

>  <number>
5.15

$$$$

====

test: Single-dose IV and PO pharmacokinetics in mice; format: in vivo, male C57BL/6 mice; settings: male, C57BL/6, mouse, in vivo, po, 40 mg/kg, Cmax following an oral dose of the unconjugated compound
parameter_measured: Cmax (nM)

>  <compound>
O=C(Nc1ccc([N+](=O)[O-])cc1Cl)c1cc(Cl)ccc1O [Niclosamide, niclosamide, reference compound]

>  <parameter_measured>
Cmax

>  <number>
1650

$$$$

====

Test: Single-dose IV and PO pharmacokinetics in mice
Type: in vivo, male C57BL/6 mice
Details: male, C57BL/6, mouse, in vivo, po, 40 mg/kg
Description: The in-life study and quantitative analysis of plasma samples using LC/MS were performed at Charles River Laboratories, Inc. (Wilmington, MA, USA).

>  <molecule>
O=C(Nc1ccc([N+](=O)[O-])cc1Cl)c1cc(Cl)ccc1O [Niclosamide, niclosamide, reference compound]

>  <Tmax, min>
25.2

$$$$

====

assay: Single-dose IV and PO pharmacokinetics in mice; format: in vivo, male C57BL/6 mice; conditions: PO, 40 mg/kg (valine conjugates 40 mg/kg EQV)
Each record here notes measured PO: Cl_Fobs, Geo Mean.
parameter_measured: PO: Cl_Fobs, Geo Mean

>  <compound>
O=C(Nc1ccc(C(F)(F)F)cc1Cl)c1cc(Cl)ccc1O

>  <parameter_measured>
PO: Cl_Fobs, Geo Mean

>  <result>
0.21 L/h

$$$$
>  <compound>
O=C(Nc1ccc(C(F)(F)F)cc1)c1cc(Cl)ccc1O

>  <parameter_measured>
PO: Cl_Fobs, Geo Mean

>  <result>
0.35 L/h

$$$$
>  <compound>
CC(C)[C@H](N)C(=O)Oc1ccc(Cl)cc1C(=O)Nc1ccc(C(F)(F)F)cc1

>  <parameter_measured>
PO: Cl_Fobs, Geo Mean

>  <result>
0.59 L/h

$$$$
>  <compound>
CC(C)[C@H](N)C(=O)Oc1ccc(Cl)cc1C(=O)Nc1ccc([N+](=O)[O-])cc1Cl [valine–niclosamide]

>  <parameter_measured>
PO: Cl_Fobs, Geo Mean

>  <result>
0.05 L/h

$$$$
>  <compound>
CC(C)[C@H](N)C(=O)Oc1ccc(Cl)cc1C(=O)Nc1ccc(C(F)(F)F)cc1Cl

>  <parameter_measured>
PO: Cl_Fobs, Geo Mean

>  <result>
0.05 L/h

$$$$
